Parameter 'readout' = pKi; parameter 'system' = 5-hydroxytryptamine receptor 2A (Homo sapiens).
Sequence (P28223 whole entry): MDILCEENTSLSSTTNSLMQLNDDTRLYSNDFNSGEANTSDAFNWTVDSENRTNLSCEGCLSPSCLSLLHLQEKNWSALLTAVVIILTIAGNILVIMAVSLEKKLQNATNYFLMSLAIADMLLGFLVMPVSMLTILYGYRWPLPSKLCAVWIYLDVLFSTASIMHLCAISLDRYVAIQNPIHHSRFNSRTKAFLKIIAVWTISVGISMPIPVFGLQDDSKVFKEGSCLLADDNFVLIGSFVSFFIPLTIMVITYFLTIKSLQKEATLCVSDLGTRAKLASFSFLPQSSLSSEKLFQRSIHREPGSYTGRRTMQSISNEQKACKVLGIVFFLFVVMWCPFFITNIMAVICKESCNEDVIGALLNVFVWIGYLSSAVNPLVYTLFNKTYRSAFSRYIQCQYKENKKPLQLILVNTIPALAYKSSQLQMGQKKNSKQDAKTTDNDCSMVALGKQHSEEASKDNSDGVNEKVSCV
Give bare numbers, as −log10 of the molar value.

# STRUCTURE, pKi
rows = [
    ("CN1CCC[C@@H]1Cc1c[nH]c2ccc(NS(=O)(=O)c3cccc(Cl)c3)cc12", 6.57),
]

# next compound below
Incoming: Endpoint output: pKi of `CN1CCC[C@@H]1Cc1c[nH]c2ccc(NS(=O)(=O)c3ccccc3Cl)cc12` . Value?
Outgoing: 6.44

* * *

Parameter 'readout' = Ki; parameter 'system' = 5-hydroxytryptamine receptor 6 (Homo sapiens).
One number for each entry, in nM.

# STRUCTURE, Ki, nM
records = [
    ("CN1CCC[C@H]1Cc1c[nH]c2ccc(NS(=O)(=O)c3ccccc3Br)cc12", 5),
    ("Cc1ccc(S(=O)(=O)Nc2ccc3[nH]cc(C[C@H]4CCCN4C)c3c2)cc1", 1),
    ("CN1CCC[C@@H]1Cc1c[nH]c2ccc(NS(=O)(=O)c3ccccc3Cl)cc12", 1),
    ("CN1CCC[C@H]1Cc1c[nH]c2ccc(NS(=O)(=O)c3ccc(F)cc3Cl)cc12", 35),
]

# next molecule below
Incoming: Give recorded Ki with 5-hydroxytryptamine receptor 6 (Homo sapiens) for the following molecule: `CC(C)c1ccc(S(=O)(=O)Nc2ccc3[nH]cc(C[C@@H]4CCCN4C)c3c2)cc1`
Outgoing: 3

* * *

Please provide measured Emax for the entries that follow.
TESTED_TARGET: 5-hydroxytryptamine receptor 6 (Homo sapiens, UniProt P50406)
Sequence (P50406 whole entry): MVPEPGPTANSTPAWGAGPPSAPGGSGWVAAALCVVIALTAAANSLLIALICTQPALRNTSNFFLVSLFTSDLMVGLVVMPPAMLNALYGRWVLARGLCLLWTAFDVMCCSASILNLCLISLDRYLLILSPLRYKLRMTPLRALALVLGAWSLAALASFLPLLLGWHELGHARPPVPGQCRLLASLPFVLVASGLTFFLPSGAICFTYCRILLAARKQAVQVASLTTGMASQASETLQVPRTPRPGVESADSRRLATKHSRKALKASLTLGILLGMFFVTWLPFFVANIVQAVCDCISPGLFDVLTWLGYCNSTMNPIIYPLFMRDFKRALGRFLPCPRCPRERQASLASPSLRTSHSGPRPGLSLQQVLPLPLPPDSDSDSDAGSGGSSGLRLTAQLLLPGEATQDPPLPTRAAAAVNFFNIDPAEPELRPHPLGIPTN
ASSAY: Maximum percentage agonism of cAMP production in HeLa cells expressing human 5-hydroxytryptamine 6 receptor
Type: functional, cell-based
Give bare numbers, in %.

These solved cases illustrate the format of a correct answer.
# STRUCTURE, Emax, %
measured = [
    ("O=S(=O)(Cc1ccccc1I)Nc1ccc2[nH]cc(C[C@H]3CCCN3)c2c1", 100),
    ("CN1CCC[C@@H]1Cc1c[nH]c2ccc(NS(=O)(=O)c3ccc(F)cc3)cc12", 85),
    ("O=S(=O)(Nc1ccc2[nH]cc(C[C@H]3CCCN3)c2c1)c1cccc(C(F)(F)F)c1", 77),
]

Provide the reported Emax of each entry below, same order.
1. CN1CCC[C@@H]1Cc1c[nH]c2ccc(NS(=O)(=O)c3ccc(C(F)(F)F)cc3)cc12
2. CN1CCC[C@@H]1Cc1c[nH]c2ccc(NS(=O)(=O)c3ccc(OC(F)(F)F)cc3)cc12
3. CN1CCC[C@@H]1Cc1c[nH]c2ccc(NS(=O)(=O)c3cccc(Cl)c3)cc12

Outgoing:
1. 85
2. 94
3. 100

Provide the reported Emax of each entry below, same order.
1. O=S(=O)(Nc1ccc2[nH]cc(C[C@H]3CCCN3)c2c1)c1ccc(OC(F)(F)F)cc1
2. O=S(=O)(Nc1ccc2[nH]cc(C[C@H]3CCCN3)c2c1)c1ccccc1
3. CN1CCC[C@@H]1Cc1c[nH]c2ccc(NS(=O)(=O)c3cccc(C(F)(F)F)c3)cc12
4. CN1CCC[C@H]1Cc1c[nH]c2ccc(NS(=O)(=O)c3ccc(OC(F)(F)F)cc3)cc12
5. O=S(=O)(Nc1ccc2[nH]cc(C[C@H]3CCCN3)c2c1)c1cccc(Cl)c1
6. Cc1noc(C)c1S(=O)(=O)Nc1ccc2[nH]cc(C[C@H]3CCCN3C)c2c1

Outgoing:
[86, 73, 90, 68, 92, 77]
